Every entry's value here was drawn from patent US12447153B2.

Target: EGFR wild type (EGFR WT) (Homo sapiens (Human), UniProt P00533)
Sequence (P00533 25-1210): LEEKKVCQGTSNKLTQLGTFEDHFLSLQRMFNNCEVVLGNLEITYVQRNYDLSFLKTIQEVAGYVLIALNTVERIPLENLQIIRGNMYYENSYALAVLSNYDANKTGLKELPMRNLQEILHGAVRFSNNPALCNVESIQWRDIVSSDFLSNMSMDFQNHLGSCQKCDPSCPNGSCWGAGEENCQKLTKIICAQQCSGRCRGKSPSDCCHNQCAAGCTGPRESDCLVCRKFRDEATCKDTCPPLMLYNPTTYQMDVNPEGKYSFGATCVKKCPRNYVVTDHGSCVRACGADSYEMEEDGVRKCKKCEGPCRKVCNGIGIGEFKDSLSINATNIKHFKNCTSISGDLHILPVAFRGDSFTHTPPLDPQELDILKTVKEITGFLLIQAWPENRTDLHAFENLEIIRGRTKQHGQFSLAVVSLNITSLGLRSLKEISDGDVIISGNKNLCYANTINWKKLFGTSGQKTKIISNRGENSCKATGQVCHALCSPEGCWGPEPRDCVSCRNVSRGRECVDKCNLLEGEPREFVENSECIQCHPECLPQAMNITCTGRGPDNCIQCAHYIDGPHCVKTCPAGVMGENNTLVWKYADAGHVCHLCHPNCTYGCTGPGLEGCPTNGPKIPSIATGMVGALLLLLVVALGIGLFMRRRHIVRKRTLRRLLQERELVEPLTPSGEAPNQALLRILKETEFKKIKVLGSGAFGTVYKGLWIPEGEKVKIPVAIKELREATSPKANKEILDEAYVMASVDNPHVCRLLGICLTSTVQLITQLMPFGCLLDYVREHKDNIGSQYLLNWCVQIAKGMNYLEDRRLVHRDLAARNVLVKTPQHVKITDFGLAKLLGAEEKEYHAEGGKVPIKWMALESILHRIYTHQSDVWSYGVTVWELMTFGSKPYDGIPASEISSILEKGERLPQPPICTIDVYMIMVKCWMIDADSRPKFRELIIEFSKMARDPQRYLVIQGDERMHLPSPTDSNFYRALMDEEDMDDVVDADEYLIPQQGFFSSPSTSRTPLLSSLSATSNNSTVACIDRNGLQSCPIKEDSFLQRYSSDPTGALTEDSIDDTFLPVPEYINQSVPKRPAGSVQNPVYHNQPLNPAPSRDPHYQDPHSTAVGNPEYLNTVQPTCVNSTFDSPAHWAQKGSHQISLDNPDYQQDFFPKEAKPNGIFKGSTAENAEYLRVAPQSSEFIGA
Test: Cellular Phosphorylation Assay, Assay 5 (EGF-stimulated EGFR phosphorylation, NIH 3T3 cells)
Type: cell-based
Settings: cellular EGFR WT phosphorylation, EGF-stimulated
pIC50: −log10 of the molar value.
measured_property: pIC50

compound="C=CC(=O)N1CCN(c2ccc3ncnc(Nc4cc(Cl)c(Oc5ccn6ncnc6c5)cc4F)c3n2)C[C@@H]1COC [Example 346]" target="EGFR wild type (EGFR WT) (Homo sapiens (Human), UniProt P00533)" meas_value=5.84
compound="C=C(C)C(=O)N1CCN(c2ccc3ncnc(Nc4ccc(Oc5ccn6ncnc6c5)c(C)c4F)c3n2)CC1(C)C [Example 341]" target="EGFR wild type (EGFR WT) (Homo sapiens (Human), UniProt P00533)" meas_value="≤ 5.30"
compound="C=CC(=O)N1CC[C@H]2C[C@@H]1CN2c1ccc2ncnc(Nc3cc(Cl)c(Oc4ccn5ncnc5c4)cc3F)c2n1 [Example 439]" target="EGFR wild type (EGFR WT) (Homo sapiens (Human), UniProt P00533)" meas_value="≤ 5.30"
compound="C=CC(=O)N1C[C@H]2CC[C@@H]1C[C@@H]2c1ccc2ncnc(Nc3cc(C)c(Oc4cnc5c(c4)ncn5C)cc3F)c2n1 [Example 420]" target="EGFR wild type (EGFR WT) (Homo sapiens (Human), UniProt P00533)" meas_value="≤ 5.30"
compound="C=CC(=O)N1C[C@H]2CC[C@@H]1[C@@H](c1ccc3ncnc(Nc4cc(C)c(Oc5cnc6c(c5)ncn6C)cc4F)c3n1)C2 [Example 425]" target="EGFR wild type (EGFR WT) (Homo sapiens (Human), UniProt P00533)" meas_value="≤ 5.30"
compound="C=CC(=O)N1C2CC1CN(c1ccc3ncnc(Nc4ccc(Oc5ccc6c(c5)ncn6C)c(Cl)c4F)c3n1)C2 [Example 325]" target="EGFR wild type (EGFR WT) (Homo sapiens (Human), UniProt P00533)" meas_value=6.26
